# tested_on: hCA I (Homo sapiens)
# Construct: gene CA1; recombinant, obtained in-house
# assay_text: stopped-flow CO2 hydration assay
# Type: biochemical
# details: read-out: KI (nM)* / CA I (converted)
# Source text: stopped-flow CO2 hydration assay on hCA I
assay_readout: Ki (nM)

Observe how each entry below is paired with its result.
O=C1CN(N=Cc2cnc[nH]2)C(=O)N1 ... 9600
O=C1CN(N=Cc2cccnc2)C(=O)N1 ... 45600
COc1ccc(C=NN2CC(=O)NC2=O)cc1 ... 57600
O=C1CN(N=CCCCC=NN2CC(=O)NC2=O)C(=O)N1 ... 19100
O=C1CN(N=Cc2ccc(B(O)O)cc2)C(=O)N1 ... 90700

P. O=C1CN(N=Cc2ccccn2)C(=O)N1
Q. CC(C)=CC=NN1CC(=O)NC1=O
R. O=C1CN(N=Cc2ccoc2)C(=O)N1
Q: Put these in order: smallest Ki first, largest last. Submit the labels in the order that the ranking request calls for.
Ans: R, Q, P

----------
# tested_on: hCA XII (Homo sapiens, UniProt O43570)
# Construct: gene CA12; recombinant, obtained in-house
# Sequence (O43570 25-354 limits assumed): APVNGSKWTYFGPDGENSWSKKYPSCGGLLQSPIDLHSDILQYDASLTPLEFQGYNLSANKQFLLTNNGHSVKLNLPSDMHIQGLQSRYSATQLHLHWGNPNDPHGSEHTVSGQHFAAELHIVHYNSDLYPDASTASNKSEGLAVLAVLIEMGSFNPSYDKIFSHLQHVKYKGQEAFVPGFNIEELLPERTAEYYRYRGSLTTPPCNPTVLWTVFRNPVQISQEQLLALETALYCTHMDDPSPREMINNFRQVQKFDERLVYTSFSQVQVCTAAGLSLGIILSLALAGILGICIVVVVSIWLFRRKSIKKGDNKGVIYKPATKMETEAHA
# assay_text: stopped-flow CO2 hydration assay
# Format: biochemical
# details: read-out: KI (nM)* / CA XII
assay_readout: Ki (nM)

Observe how each entry below is paired with its result.
COC(=O)c1ccc(C=NN2CC(=O)NC2=O)cc1 ... 930
O=C1CN(N=Cc2ccc(B(O)O)cc2)C(=O)N1 ... 230
COc1ccc(/C=C/C=NN2CC(=O)NC2=O)cc1 ... 360
O=C1CN(/N=C/C=C/c2ccc([N+](=O)[O-])o2)C(=O)N1 ... 57
O=C1CN(N=Cc2ccoc2)C(=O)N1 ... 1700

P. O=C1CN(N=Cc2ccc(O)cc2O)C(=O)N1
Q. COc1ccc(C=NN2CC(=O)NC2=O)cc1
Q: Thinking about recorded Ki values, which is higher, P or Q ? Please indicate the selected item by its label.
Ans: Q
(Q: 4700 nM, P: 150 nM)

a. CCOC(=O)/C=C/C=NN1CC(=O)NC1=O
b. O=C1CN(N=Cc2ccccn2)C(=O)N1
c. O=C1CN(N=Cc2ccncc2)C(=O)N1
d. O=C1CN(N=Cc2ccccc2)C(=O)N1
Q: Put these in order: smallest Ki first, largest last. Submit the labels in the order that the ranking request calls for.
Ans: a, c, b, d

I. CC(C)=CC=NN1CC(=O)NC1=O
II. O=C1CN(N=Cc2cccnc2)C(=O)N1
III. O=C1CN(N=CCCCC=NN2CC(=O)NC2=O)C(=O)N1
IV. O=C1CN(N=Cc2cnc[nH]2)C(=O)N1
Q: Put these in order: smallest Ki first, largest last. Submit the labels in the order that the ranking request calls for.
Ans: III, IV, I, II
(III: 160 nM, IV: 350 nM, I: 880 nM, II: 3200 nM)

a. O=C1CN(N=Cc2ccc(OCc3ccccc3)cc2)C(=O)N1
b. O=C1CN(N=Cc2ccc([N+](=O)[O-])cc2)C(=O)N1
Q: Record comparison, field Ki: mark the lower of a and b . Please indicate the selected item by its label.
Ans: a
(a: 910 nM, b: 2800 nM)

----------
The entries below come with measured Ki values attached.
# tested_on: hCA I (Homo sapiens, UniProt P00915)
# Construct: gene CA1; recombinant, obtained in-house
# Sequence (P00915 2-261): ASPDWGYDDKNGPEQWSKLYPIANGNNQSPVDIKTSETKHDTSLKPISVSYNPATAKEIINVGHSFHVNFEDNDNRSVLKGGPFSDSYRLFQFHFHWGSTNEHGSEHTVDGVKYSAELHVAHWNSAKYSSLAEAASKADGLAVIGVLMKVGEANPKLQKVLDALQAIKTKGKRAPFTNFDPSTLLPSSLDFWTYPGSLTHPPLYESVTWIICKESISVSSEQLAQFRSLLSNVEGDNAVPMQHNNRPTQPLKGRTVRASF
# assay_text: stopped-flow CO2 hydration assay
# Assay type: biochemical
# details: read-out: KI (nM)* / CA I (converted)

Q: Item COC(=O)c1ccc(C=NN2CC(=O)NC2=O)cc1 [compound 5] has what recorded Ki?
Ans: > 100000 nM

Q: // same read-out, input: COc1ccc(/C=C/C=NN2CC(=O)NC2=O)cc1 [compound 11]
Ans: > 100000 nM

Q: // same read-out, input: O=C1CN(N=Cc2ccc([N+](=O)[O-])cc2)C(=O)N1 [compound 4]
Ans: > 100000 nM

Q: // same read-out, input: O=C1CN(N=Cc2ccc(OCc3ccccc3)cc2)C(=O)N1 [compound 8]
Ans: > 100000 nM

Q: // same read-out, input: CCOC(=O)/C=C/C=NN1CC(=O)NC1=O [compound 9]
Ans: 45900 nM

Q: // same read-out, input: O=C1CN(N=Cc2ccncc2)C(=O)N1 [compound 16]
Ans: 26600 nM

Q: // same read-out, input: O=C1CN(/N=C/C=C/c2ccc([N+](=O)[O-])o2)C(=O)N1 [Furagin]
Ans: > 100000 nM

Q: // same read-out, input: O=C1CN(N=Cc2ccccc2)C(=O)N1 [compound 2]
Ans: 39600 nM

Q: // same read-out, input: O=C1CN(N=Cc2ccc(O)cc2O)C(=O)N1 [compound 12]
Ans: > 100000 nM
